# SYSTEM UNDER TEST: ~100 representative kinases (Homo sapiens)
# Construct: Recombinant protein kinase domains with a concentration of 2 μM
# Sequence (Q13557 whole entry, the tested form may be a part): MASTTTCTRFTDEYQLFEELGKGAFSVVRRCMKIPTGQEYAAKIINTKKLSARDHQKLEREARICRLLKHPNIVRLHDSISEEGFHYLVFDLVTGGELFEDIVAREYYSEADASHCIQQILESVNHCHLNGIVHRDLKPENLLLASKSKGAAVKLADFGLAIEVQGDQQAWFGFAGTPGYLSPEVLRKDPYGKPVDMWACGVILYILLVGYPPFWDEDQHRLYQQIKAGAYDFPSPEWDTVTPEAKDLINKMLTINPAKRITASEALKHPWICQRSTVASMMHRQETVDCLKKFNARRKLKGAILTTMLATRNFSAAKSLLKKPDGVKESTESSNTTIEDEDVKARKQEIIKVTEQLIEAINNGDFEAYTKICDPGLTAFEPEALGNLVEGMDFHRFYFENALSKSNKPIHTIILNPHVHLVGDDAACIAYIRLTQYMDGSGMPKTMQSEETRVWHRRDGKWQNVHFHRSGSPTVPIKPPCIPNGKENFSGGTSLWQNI
# ASSAY NAME: DSF 100 kinase selectivity screen;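 also: compound tested at 20 µM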
# Format: binding
# CONDITION INFO: Protein CAMK2D; average of three replicates
For each entry below, report its dTm value.
Give bare numbers, in K.

# annotated cases, reported dTm shown
| SUBSTANCE SMILES | dTm (K) |
| --- | --- |
| O=C(Nc1cccc(-c2c[nH]c3ncnc(N4CCOCC4)c23)c1)C1(C(=O)Nc2ccc(F)c(Cl)c2)CC1 | 0.66 |
| Cc1cc(NC(=O)C2(C(=O)Nc3ccc(F)cc3)CC2)cc(-c2c[nH]c3ncnc(N4CCOCC4)c23)c1 | 0.64 |
| O=C(Nc1cccc(-c2c[nH]c3ncnc(N4CCOCC4)c23)c1)C1(C(=O)Nc2ccc(F)cc2F)CC1 | 0.16 |
| O=C(Nc1ccc(Cl)cc1)C1(C(=O)Nc2cccc(-c3c[nH]c4ncnc(N5CCOCC5)c34)c2)CC1 | 1.12 |
| CC(C)(C)c1cccc(NC(=O)C2(C(=O)Nc3cccc(-c4c[nH]c5ncnc(N6CCOCC6)c45)c3)CC2)c1 | 0.84 |
| Cc1ccc(-n2nc(C(C)(C)C)cc2NC(=O)Nc2cccc(-c3c[nH]c4ncnc(N5CCOCC5)c34)c2)cc1 | -0.40 |

Now take the following molecule into account.
Enquiry: Value lookup for dTm; key = COc1cc(C(=O)N2CCOCC2)c(F)cc1Nc1nc(N(C)C)c2c(Cl)c[nH]c2n1
Return: 3.01

Each recorded value in this set is attributed to paper PMC12136037.
